# target.or.system: T1, natriuretic peptide receptor-B (human)
# T1 chain: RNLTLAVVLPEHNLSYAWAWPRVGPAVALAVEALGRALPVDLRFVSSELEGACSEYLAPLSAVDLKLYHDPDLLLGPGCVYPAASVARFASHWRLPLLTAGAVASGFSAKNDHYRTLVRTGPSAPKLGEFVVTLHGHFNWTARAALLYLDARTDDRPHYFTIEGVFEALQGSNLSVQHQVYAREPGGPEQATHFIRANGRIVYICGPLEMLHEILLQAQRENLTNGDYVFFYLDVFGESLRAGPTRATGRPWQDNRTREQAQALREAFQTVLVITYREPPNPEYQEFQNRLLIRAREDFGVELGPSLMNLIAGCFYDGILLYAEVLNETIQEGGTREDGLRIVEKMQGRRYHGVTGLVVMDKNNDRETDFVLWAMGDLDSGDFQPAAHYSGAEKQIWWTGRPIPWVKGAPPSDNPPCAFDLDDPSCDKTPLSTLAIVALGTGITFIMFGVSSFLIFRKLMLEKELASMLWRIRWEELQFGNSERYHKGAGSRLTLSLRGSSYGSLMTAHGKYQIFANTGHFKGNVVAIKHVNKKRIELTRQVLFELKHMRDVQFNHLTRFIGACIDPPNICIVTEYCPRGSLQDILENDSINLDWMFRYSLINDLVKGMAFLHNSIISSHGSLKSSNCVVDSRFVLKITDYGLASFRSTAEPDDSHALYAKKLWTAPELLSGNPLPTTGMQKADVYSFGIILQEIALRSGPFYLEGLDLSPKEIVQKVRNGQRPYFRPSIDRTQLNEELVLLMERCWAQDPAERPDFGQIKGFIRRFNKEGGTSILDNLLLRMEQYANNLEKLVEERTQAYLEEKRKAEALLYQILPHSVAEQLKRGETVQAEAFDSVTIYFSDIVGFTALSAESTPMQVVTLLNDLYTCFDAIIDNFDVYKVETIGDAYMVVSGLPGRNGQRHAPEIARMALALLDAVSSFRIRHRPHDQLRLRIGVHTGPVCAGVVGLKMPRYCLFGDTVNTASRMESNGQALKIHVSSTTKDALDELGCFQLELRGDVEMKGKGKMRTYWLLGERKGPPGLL
# procedure.details: cell-based or functional assay
Numbered stars: 1 amine (or outer) side, 2 acyl side, 3 side chain; on linkers, the order of the positions; unused ones are H or OH. Square brackets hold non-standard residues; d marks the D form. Ends that are not written are not given here. * marks the point of attachment. 6072‑OH = rac-7-hydroxy-dodecanoic acid, CCCCCC(O)CCCCCC(=O)*; Pro(trans-4-NH2) = O=C([C@@H]1C[C@@H](N[*:3])CN1[*:1])[*:2]; Sni = (S)-nipecotic acid, O=C([C@H]1CCCN([*:1])C1)[*:2]; Hyp = O=C(O)[C@@H]1C[C@@H](O)CN1; NMeL = CN[C@@H](CC(C)C)C(=O)O; dNle = CCCC[C@@H](N)C(=O)O; Octanoyl = CCCCCCCC(=O)*; Che = not defined here; NHcHex = C1CCC(N*)CC1; Occ = octanoic acid
measurement.label: EC50 group, cGMP in GTM-3 cells

Observe how each entry below is paired with its result.
Fill in EC50 group, cGMP in GTM-3 cells for record Octanoyl-[dA]F[dL]LP[NMeL]DRI-NH2 [JAL-1039]
≤ 1 µM

Fill in EC50 group, cGMP in GTM-3 cells for record {6072‑OH}-FRL[Hyp][NMeL]DRI-NH2 (not fully specified (some residues); printed as (6072-OH)-Phe-arg-Leu-Hyp-Nml-Asp-Arg-Ile-NH2) [JAL-1260]
≤ 5 µM

---
Fill in EC50 group, cGMP in GTM-3 cells for record Octanoyl-[dA]F[dL]L[Hyp][NMeL]D[Pro(trans-4-NH2)]I-NH2 [JAL-1459]
≤ 15 µM

Fill in EC50 group, cGMP in GTM-3 cells for record Octanoyl-[Sni]F[dNle]LPLDRI-NH2 [JAL-1021]
≤ 5 µM

Fill in EC50 group, cGMP in GTM-3 cells for record Octanoyl-[Sni]F[dL]L[Hyp][NMeL]DP[NHcHex] [JAL-1464]
≤ 5 µM

Fill in EC50 group, cGMP in GTM-3 cells for record [Occ][Sni]F[dL]L[Hyp][NMeL]DR[Che] (reading uncertain; also: printed as Occ-Sni-Phe-leu-Leu-Hyp-Nml-Asp-Arg-Che) [JAL-1680]
≤ 1 µM
